# System: L1210 leukemia ip in BDF1 mice, survival T/C
# ASSAY PROTOCOL: NCI In Vivo Anticancer Drug Screen. Data for tumor model L1210 Leukemia (intraperitoneal) in B6D2F1 (BDF1) mice
# TEST CONDITIONS: endpoint: mean survival time; dose: 100.0 mg/kg/injection; schedule: Q01DX001 (ip); vehicle: Klucel (hydroxypropylcellulose) (HPC); higher = longer survival
Inconclusive results and toxic doses are left out.
Please go through the items and note down their T/C.

Working through the 8 compounds below one at a time, give T/C for each.
1. CS(=O)(=O)Nc1ccc(NS(C)(=O)=O)c(SCc2ccccc2)c1
2. O=C1C(=O)c2cccc3cccc1c23
3. Cc1cc(C)c(F)c(-c2c(N)c(C)cc(C)c2F)c1N
4. Cc1ccc(Cl)cc1N=Cc1cccc([N+](=O)[O-])c1
5. Nc1c[nH]c(=S)s1
6. COC(=O)c1cc(=O)c2c(=O)n(Cc3ccccc3)c(=O)n(Cc3ccccc3)c2[nH]1
7. O=[N+]([O-])c1ccc(C2=NC(c3ccccc3)CO2)cc1 (stereo unspecified)
8. O=C(O)c1ccccc1Nc1ccccc1

["95 % of control", "88 % of control", "101 % of control", "100 % of control", "94 % of control", "106 % of control", "112 % of control", "102 % of control"]

Working through the 7 compounds below one at a time, give T/C for each.
1. O=C1C=C(C2CCCCC2)C(=O)C2CCCCC12 (stereo unspecified)
2. N#CCCOP(=O)(O)O
3. Cc1cc(C(c2ccccc2)c2ccccc2)cc(C)c1O
4. O=C(NNC(=O)c1ccc(Br)cc1)c1ccc(Cl)cc1
5. CCCCN(C(C)=O)c1ccccc1
6. CCCCCCCCCCCCCCCCOc1c(Br)cc(Br)cc1Br
7. O=C1c2ccccc2C(=O)N1CCCCCCCCCCCCCCN1C(=O)c2ccccc2C1=O

1: 107 % of control; 2: 101 % of control; 3: 98 % of control; 4: 100 % of control; 5: 97 % of control; 6: 87 % of control; 7: 94 % of control

For the compound `Cn1c(N)cc(=O)n(C)c1=O` , what T/C is on record? 112 % of control

---

# Tested on: L1210 leukemia ip in BDF1 mice, survival T/C
# ASSAY PROTOCOL: NCI In Vivo Anticancer Drug Screen. Data for tumor model L1210 Leukemia (intraperitoneal) in B6D2F1 (BDF1) mice
# TEST CONDITIONS: endpoint: mean survival time; dose: 100.0 mg/kg/injection; schedule: Q04DX003 (ip); vehicle: saline; higher = longer survival
Inconclusive results and toxic doses are left out.
Please go through the items and note down their T/C.

[
  {
    "COMPOUND": "CCNCC#CCNCC",
    "TARGET": "L1210 leukemia ip in BDF1 mice, survival T/C",
    "RESULT": "96 % of control"
  },
  {
    "COMPOUND": "CCn1c(C)[n+](CCCOS(=O)(=O)[O-])c2ccccc21",
    "TARGET": "L1210 leukemia ip in BDF1 mice, survival T/C",
    "RESULT": "97 % of control"
  },
  {
    "COMPOUND": "CCCCCCCCCCCCCCCCCC[n+]1ccc(C(N)=O)cc1",
    "TARGET": "L1210 leukemia ip in BDF1 mice, survival T/C",
    "RESULT": "91 % of control"
  }
]

Working through the 4 compounds below one at a time, give T/C for each.
1. C(=C\c1nc2ccccc2s1)/c1ccccc1
2. O=c1cc(CN2CCN(CCO)CC2)[nH]c(=O)[nH]1
3. CC1CN(c2ccc([N+](=O)[O-])cc2)C(C)CN1 (configuration not stated)
4. CN(C)CCCn1c2ccccc2c2cnccc21

1. 103 % of control
2. 101 % of control
3. 98 % of control
4. 97 % of control
